Experiment: protein stability index of a GFP-peptide fusion (yeast GPS) (PSI 1-4); higher = more stable; sorted into four equal gates, so the index is relative within each strain
Conditions: doa10∆
Classes are defined on protein stability index with ranges bucket 1 = under 2, bucket 2 = from 2 up to 3, bucket 3 = 3 and over

Look over these answered cases.
> print(dat)
            sequence.record       cat
1  SHFVSAVSTIASISLAI [RPP0]  bucket 1
2  VESPDKNVRFRVLQLLA [YCG1]  bucket 1
3  PHELTESVLPAARYDYA [QCR2]  bucket 2
4  IVVAMTGKDCVAIACDL [PUP3]  bucket 1
5  DSEERDPKLEKCLNYRN [ITC1]  bucket 2
6  DNFDYFNQRDGEHEKSN [MED1]  bucket 2

Dear colleague, I would appreciate it if you could identify the bin for KFILSGFIFTSMILEAI [RRI2] and reply at your convenience.
bucket 1

Each sequence maps to one class by protein stability index. Which class for NHTAHNQTRKAHRNGIK [RPL29] ?
bucket 1

Which bin should I file SKDELREKLAEVYKAEK [RPS24A] under?
bucket 3

Lab log: HDYWNKIMQSISNKDVI [SRB4] — assign protein stability index category
bucket 1

Which class does QPTPRSASNTAKSTPNT [GAL11] fall in?
bucket 2

For VFLKHSLSIKLATLHYQ [RPN6] , which protein stability index bin applies?
bucket 2

Exam item: assign ISNKDVIFKIRDRTSGQ [SRB4] to the correct category.
bucket 3
